Please provide measured HCT-116 % Inhibition at 0.1 μM for the entries that follow.
tested on: HCT-116 cell line; assay: Inhibition of cell growth, MTT tetrazolium salt assay; type: cell-based; conditions: HCT-116, at 0.1 μM

Known HCT-116 % Inhibition at 0.1 μM results, listed for orientation:
MOLECULE	HCT-116 % Inhibition at 0.1 μM
CCOC(=O)c1ccc(NC(=O)c2ccc(Nc3nc(N)c(C(=O)c4c(F)cccc4F)s3)cc2)cc1 [Example G190]	9%
CC(C)CC(C)NC(=O)c1ccc(Nc2nc(N)c(C(=O)c3c(F)cccc3F)s2)cc1 (centres unmarked) [Example G125]	13%
Nc1nc(Nc2ccc(C(=O)NCC3CCCCC3)cc2)sc1C(=O)c1c(F)cccc1F [Example G173]	18%

I would be grateful if you could provide HCT-116 % Inhibition at 0.1 μM for each of the following entries.
1. Nc1nc(Nc2ccc(C(=O)NCC(O)c3ccccc3)cc2)sc1C(=O)c1c(F)cccc1F (centres unmarked) [Example G104]
2. COc1cccc(CCNC(=O)c2ccc(Nc3nc(N)c(C(=O)c4c(F)cccc4F)s3)cc2)c1 [Example G193]

Result:
1. 38%
2. 17%

---

What CDK4 % Inhibition at 0.03 μM was measured for each of the following?
molecular target: human CDK4/cyclin D3 (Homo sapiens); construct: made in house; host or cells: insect cells co-infected with baculovirus vectors; assay: Inhibition of CDK4/cyclin D retinoblastoma kinase activity (Ki; % inhibition); format: biochemical; conditions: at 0.03 μM
Sequence (P11802 whole entry): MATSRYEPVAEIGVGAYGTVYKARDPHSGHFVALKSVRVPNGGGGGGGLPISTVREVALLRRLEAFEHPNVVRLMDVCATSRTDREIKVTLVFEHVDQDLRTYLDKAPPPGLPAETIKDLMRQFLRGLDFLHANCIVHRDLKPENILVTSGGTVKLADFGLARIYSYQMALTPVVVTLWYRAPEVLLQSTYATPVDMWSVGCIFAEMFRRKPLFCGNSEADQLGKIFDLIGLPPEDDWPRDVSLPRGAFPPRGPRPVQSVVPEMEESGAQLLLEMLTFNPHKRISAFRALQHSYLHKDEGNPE
Sequence (P30281 1-264 partner limits assumed): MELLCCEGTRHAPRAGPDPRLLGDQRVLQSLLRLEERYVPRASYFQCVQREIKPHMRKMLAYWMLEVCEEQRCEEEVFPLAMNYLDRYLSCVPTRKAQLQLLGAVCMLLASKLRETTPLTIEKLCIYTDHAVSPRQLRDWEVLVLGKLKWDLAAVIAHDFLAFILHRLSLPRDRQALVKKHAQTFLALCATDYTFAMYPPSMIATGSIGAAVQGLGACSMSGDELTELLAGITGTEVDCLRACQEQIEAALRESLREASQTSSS
One number for each entry, in %.

Illustrative cases are given below, each with its answer.
COMPOUND	OBSERVED VALUE
CCOC(=O)c1ccccc1NC(=O)c1ccc(Nc2nc(N)c(C(=O)c3c(F)cccc3F)s2)cc1 [Example G46]	11
C#CCCN(CCCC)C(=O)c1ccc(Nc2nc(N)c(C(=O)c3c(F)cccc3F)s2)cc1 [Example G171]	16
Nc1nc(Nc2ccc(C(=O)NCC3CCCCC3)cc2)sc1C(=O)c1c(F)cccc1F [Example G173]	21

Request: Look at this compound and give its reported CDK4 % Inhibition at 0.03 μM. CCOC(=O)c1cccc(NC(=O)c2ccc(Nc3nc(N)c(C(=O)c4c(F)cccc4F)s3)cc2)c1 [Example G24]
Result: 11

---

biological target: CDK2/cyclin A (Homo sapiens, UniProt P24941); construct: cyclin A: E. coli; experiment: Inhibition of CDK2/cyclin A retinoblastoma kinase activity (Ki; % inhibition); settings: apparent Ki, CDK2/cyclin A, Rb substrate
Where a name gives a salt, the structure may show the parent alone.
Please respond with reported pKi for every item in the list.
Numbers only, as −log10 of the molar value.

Illustrative cases are given below, each with its answer.
COMPOUND	OBSERVED VALUE
Nc1nc(Nc2ccc(C(=O)Nc3cccnc3)cc2)sc1C(=O)c1c(F)cccc1F [Example A27]	7.18
CN(C)CCNC(=O)c1ccc(Nc2nc(N)c(C(=O)c3c(F)cccc3F)s2)cc1 [Example A4, Hydrochloride Salt]	6.64
CN(CC1CC1)C(C)(C)CNC(=O)c1ccc(Nc2nc(N)c(C(=O)c3c(F)cccc3F)s2)cc1 [Example A39]	6.80

Next:
Request: For the compound Nc1nc(Nc2ccc(C(=O)NC3Cc4ccccc4C3)cc2)sc1C(=O)c1c(F)cccc1F [Example A22] , what pKi is on record?
Result: 8.22

---

Can you tell me CDK4 % Inhibition at 0.03 μM for the items I'm about to list?
target: human CDK4/cyclin D3 (Homo sapiens); construct: made in house; host or cells: insect cells co-infected with baculovirus vectors; test: Inhibition of CDK4/cyclin D retinoblastoma kinase activity (Ki; % inhibition); format: biochemical; settings: at 0.03 μM
Give bare numbers, in %.

Use the examples below as a reference point.
COMPOUND	UNITS SYMBOL	OBSERVED VALUE
CN(CC1OCCO1)C(=O)c1ccc(Nc2nc(N)c(C(=O)c3c(F)cccc3F)s2)cc1	%	7
Nc1nc(Nc2ccc(C(=O)Nc3ccc(S(N)(=O)=O)cc3)cc2)sc1C(=O)c1c(F)cccc1F	%	15
Nc1nc(Nc2ccc(C(=O)N[C@H]3CCc4ccccc43)cc2)sc1C(=O)c1c(F)cccc1F	%	36

// for each compound below, give its CDK4 % Inhibition at 0.03 μM
1. Nc1nc(Nc2ccc(C(=O)NC3CCCCC3)cc2)sc1C(=O)c1c(F)cccc1F
2. Nc1nc(Nc2ccc(C(=O)NCCc3ccccc3Cl)cc2)sc1C(=O)c1c(F)cccc1F

Result:
1: 17; 2: 23

Return reported CDK4 % Inhibition at 0.03 μM values for all items listed beneath this line.
1. CCC(COC)NC(=O)c1ccc(Nc2nc(N)c(C(=O)c3c(F)cccc3F)s2)cc1 (centres unmarked)
2. Nc1nc(Nc2ccc(C(=O)N3CCN(C(=O)c4ccco4)CC3)cc2)sc1C(=O)c1c(F)cccc1F
3. CN(C)CCNC(=O)c1ccc(Nc2nc(N)c(C(=O)c3c(F)cccc3F)s2)cc1

Result:
1: 5; 2: 27; 3: 36

---

system: HCT-116 cell line; assay: Inhibition of cell growth, MTT tetrazolium salt assay; assay type: cell-based; settings: HCT-116 cells, 0.1 μM compound
Please provide measured HCT-116 % Inhibition at 0.1 μM for the entries that follow.
Numbers only, in %.

Sample records with HCT-116 % Inhibition at 0.1 μM:
COMPOUND	UNITS SYMBOL	HCT-116 % Inhibition at 0.1 μM
Cc1cc(C)cc(NC(=O)c2ccc(Nc3nc(N)c(C(=O)c4c(F)cccc4F)s3)cc2)c1	%	0
Cc1cccc(N2CCN(C(=O)c3ccc(Nc4nc(N)c(C(=O)c5c(F)cccc5F)s4)cc3)CC2C)c1 (stereo not shown)	%	5
Nc1nc(Nc2ccc(C(=O)N(CCO)Cc3ccccc3)cc2)sc1C(=O)c1c(F)cccc1F	%	31
Cc1cccc(CN(C)C(=O)c2ccc(Nc3nc(N)c(C(=O)c4c(F)cccc4F)s3)cc2)n1	%	7
COc1ccc(CNC(=O)c2ccc(Nc3nc(N)c(C(=O)c4c(F)cccc4F)s3)cc2)c(OC)c1	%	35

Hello, I would appreciate it if you could give HCT-116 % Inhibition at 0.1 μM for each entry below.
1. Nc1nc(Nc2ccc(C(=O)Nc3ccc(OC(F)(F)F)cc3)cc2)sc1C(=O)c1c(F)cccc1F
2. CC(C)(C)c1ccc(CNC(=O)c2ccc(Nc3nc(N)c(C(=O)c4c(F)cccc4F)s3)cc2)cc1
3. Nc1nc(Nc2ccc(C(=O)N(CCCCO)Cc3ccccc3)cc2)sc1C(=O)c1c(F)cccc1F
4. N#CCCNc1ccccc1NC(=O)c1ccc(Nc2nc(N)c(C(=O)c3c(F)cccc3F)s2)cc1
5. Nc1nc(Nc2ccc(C(=O)NCCC3=CCCCC3)cc2)sc1C(=O)c1c(F)cccc1F

Result:
1: 19; 2: 15; 3: 24; 4: 14; 5: 13

Please supply HCT-116 % Inhibition at 0.1 μM for each of the following items, keeping them in order.
1. CCOC(=O)N1CCC(NC(=O)c2ccc(Nc3nc(N)c(C(=O)c4c(F)cccc4F)s3)cc2)CC1
2. COc1cc(NC(=O)c2ccc(Nc3nc(N)c(C(=O)c4c(F)cccc4F)s3)cc2)cc(OC)c1OC
3. Nc1nc(Nc2ccc(C(=O)NCCC3OCCO3)cc2)sc1C(=O)c1c(F)cccc1F

Result:
6
10
20

Provide HCT-116 % Inhibition at 0.1 μM values for the following items, in order.
1. N#CCCN(Cc1ccccc1)C(=O)c1ccc(Nc2nc(N)c(C(=O)c3c(F)cccc3F)s2)cc1
2. CCN(Cc1ccccc1)C(=O)c1ccc(Nc2nc(N)c(C(=O)c3c(F)cccc3F)s2)cc1
3. CCCCN(Cc1ccccc1)C(=O)c1ccc(Nc2nc(N)c(C(=O)c3c(F)cccc3F)s2)cc1
4. Nc1nc(Nc2ccc(C(=O)NCCSCCO)cc2)sc1C(=O)c1c(F)cccc1F
5. CCOC(CCCNC(=O)c1ccc(Nc2nc(N)c(C(=O)c3c(F)cccc3F)s2)cc1)OCC
6. CN(CC(O)c1ccccc1)C(=O)c1ccc(Nc2nc(N)c(C(=O)c3c(F)cccc3F)s2)cc1 (stereo not shown)
7. CCN(C(=O)c1ccc(Nc2nc(N)c(C(=O)c3c(F)cccc3F)s2)cc1)C1CCCCC1
8. COc1ccc(NC(=O)c2ccc(Nc3nc(N)c(C(=O)c4c(F)cccc4F)s3)cc2)cn1

Result:
[15, 9, 9, 26, 8, 0, 8, 22]

---

target: CDK2/cyclin A (Homo sapiens, UniProt P24941); construct: cyclin A: E. coli; assay: Inhibition of CDK2/cyclin A retinoblastoma kinase activity (Ki; % inhibition); settings: apparent Ki, CDK2/cyclin A, Rb substrate
Counter-ions that a name gives are not always drawn.
What Ki was measured for each of the following?
One number for each entry, in nM.

COMPOUND	Ki / nM
CN(C)CCNC(=O)c1ccc(Nc2nc(N)c(C(=O)c3c(F)cccc3F)s2)cc1Cl	170
CC(=O)N1CCC[C@H]1CNC(=O)c1ccc(Nc2nc(N)c(C(=O)c3c(F)cccc3F)s2)cc1	290
CC(C)N(CCNC(=O)c1ccc(Nc2nc(N)c(C(=O)c3c(F)cccc3F)s2)cc1)C(C)C	130
Nc1nc(Nc2ccc(C(=O)NCCN3CCCCC3)cc2)sc1C(=O)c1c(F)cccc1F	150
CN(C)CCNC(=O)c1ccc(Nc2nc(N)c(C(=O)c3c(Cl)cccc3Cl)s2)cc1	220

Provide the reported Ki of each entry below, same order.
1. COc1cc(Nc2nc(N)c(C(=O)c3c(F)cccc3F)s2)ccc1C(=O)NC(C)CN(C)C (stereo not shown)
2. Cc1ccsc1C(=O)c1sc(Nc2ccc(C(=O)N[C@H](C)CN(C)C)cc2)nc1N [Example A62, Trifluoroacetic Acid Salt]
3. CN1CC(CNC(=O)c2ccc(Nc3nc(N)c(C(=O)c4c(F)cccc4F)s3)cc2)C1
4. CN1CC[C@@H](NC(=O)c2ccc(Nc3nc(N)c(C(=O)c4c(F)cccc4F)s3)cc2)C1

Result:
91
2.8
7.3
69

Could I get Ki for every one of these entries?
1. Nc1nc(Nc2ccc(C(=O)NC3CCN(Cc4ccccc4)CC3)cc2)sc1C(=O)c1c(F)cccc1F
2. CN1[C@@H]2CC[C@@H](C2)[C@@H]1CNC(=O)c1ccc(Nc2nc(N)c(C(=O)c3c(F)cccc3F)s2)cc1 (relative stereo)
3. Nc1nc(Nc2ccc(C(=O)NCCO)cc2)sc1C(=O)c1c(Cl)cccc1Cl
4. CC(CCCC(C)(C)O)NC(=O)c1ccc(Nc2nc(N)c(C(=O)c3c(F)cccc3F)s2)cc1 (stereo not shown)
5. CN1CCC[C@H]1CNC(=O)c1ccc(Nc2nc(N)c(C(=O)c3ccccc3F)s2)cc1 [Example A67, Trifluoroacetic Acid Salt]

Result:
79
15
96
72
13

Please go through the list and note Ki for each compound.
1. NC(=O)CNC(=O)c1ccc(Nc2nc(N)c(C(=O)c3c(Cl)cccc3Cl)s2)cc1
2. CN(C)CCNC(=O)c1cccc(Nc2nc(N)c(C(=O)c3c(F)cccc3F)s2)c1

Result:
65
270
